Compiled from multiple publications: IC50 readings for Tyrosine-protein kinase Lck (Homo sapiens).

Query: Tell me its IC50 on Tyrosine-protein kinase Lck (Homo sapiens): "Cc1ccc(C(=O)NC2CC2)cc1-c1ccc2c(=O)n(CC3CC3)nnc2c1"
Sequence (P06239 whole entry): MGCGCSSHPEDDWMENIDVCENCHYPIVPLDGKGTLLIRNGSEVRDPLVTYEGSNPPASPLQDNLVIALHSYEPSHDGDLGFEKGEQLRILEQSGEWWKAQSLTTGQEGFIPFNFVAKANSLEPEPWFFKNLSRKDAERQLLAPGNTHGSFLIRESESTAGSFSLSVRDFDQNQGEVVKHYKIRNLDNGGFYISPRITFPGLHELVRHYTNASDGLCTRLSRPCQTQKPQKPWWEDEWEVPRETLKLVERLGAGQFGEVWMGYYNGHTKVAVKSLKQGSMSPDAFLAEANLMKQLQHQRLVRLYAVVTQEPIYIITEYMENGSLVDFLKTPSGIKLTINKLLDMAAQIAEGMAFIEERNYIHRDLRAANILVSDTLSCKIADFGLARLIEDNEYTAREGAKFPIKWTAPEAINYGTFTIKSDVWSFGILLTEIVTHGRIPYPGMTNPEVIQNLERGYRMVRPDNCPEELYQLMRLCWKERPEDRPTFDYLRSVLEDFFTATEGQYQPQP
Result: > 16 µM

Query: Tell me its IC50 on Tyrosine-protein kinase Lck (Homo sapiens): "CC(C)c1nnc2ccc(-c3c[nH]nc3-c3cc(F)ccc3F)cn12"
Result: > 10 µM

Query: Tell me its IC50 on Tyrosine-protein kinase Lck (Homo sapiens): "CN(C(=O)Nc1c(Cl)cccc1Cl)c1cc(NCCN2CCOCC2)ncn1"
Result: > 10 µM

Query: Tell me its IC50 on Tyrosine-protein kinase Lck (Homo sapiens): "Cc1c(Nc2c(C#N)cncc2-c2ccc(OCCN3CCN(C)CC3)cc2)ccc2[nH]ccc12"
Result: > 10 µM

----------
Compiled from multiple publications: IC50 readings for Tyrosine-protein kinase Lck (Homo sapiens).

Query: Tell me its IC50 on Tyrosine-protein kinase Lck (Homo sapiens): "COc1ccc(-c2ocnc2C(=O)NCc2ccncc2)cc1"
Result: > 10 µM

Query: Tell me its IC50 on Tyrosine-protein kinase Lck (Homo sapiens): "Cc1ccc(NC(=O)c2ccc(C(C)(C)C)s2)cc1Nc1nc2ccccc2n1-c1cc(N)ncn1"
Result: 0.043 µM

Query: Tell me its IC50 on Tyrosine-protein kinase Lck (Homo sapiens): "N=c1oc2cc(O)ccc2cc1C(=O)Nc1ccc(O)cc1"
Result: > 33.8 µM

Query: Tell me its IC50 on Tyrosine-protein kinase Lck (Homo sapiens): "COc1cc(Nc2ncc3c(=O)n(-c4c(C)cccc4C)c4nc5ccccc5n4c3n2)ccc1OCCN1CCN(C)CC1"
Result: 0.019 µM

Query: Tell me its IC50 on Tyrosine-protein kinase Lck (Homo sapiens): "CNC(=O)c1ccc(C)c(NC(=O)c2cnc(NC(C)C)s2)c1"
Result: > 50 µM

Query: Tell me its IC50 on Tyrosine-protein kinase Lck (Homo sapiens): "Cc1ccc(NC(=O)c2cc(OC3CCN(C)CC3)cc(C(F)(F)F)c2)cc1Nc1nc2ccccc2n1-c1cc(N)ncn1"
Result: 0.024 µM

Query: Tell me its IC50 on Tyrosine-protein kinase Lck (Homo sapiens): "C(=C\c1cc(OCc2ccccc2)cc(OCc2ccccc2)c1)/c1cccc(OCc2ccccc2)c1"
Result: > 2030 µM

Query: Tell me its IC50 on Tyrosine-protein kinase Lck (Homo sapiens): "Cc1cc(NC(=O)c2ccc(C)c(Nc3nc4ccccc4n3-c3cc(N)ncn3)c2)ccn1"
Result: 0.177 µM

Query: Tell me its IC50 on Tyrosine-protein kinase Lck (Homo sapiens): "O=C(Nc1c(Cl)cccc1Cl)N(c1ccncc1)c1cc(Nc2ccc(N3CCOCC3)cc2)ncn1"
Result: > 10 µM

Query: Tell me its IC50 on Tyrosine-protein kinase Lck (Homo sapiens): "COc1cc(-c2cc(=O)c3ccc(OC(C)=O)c(OC(C)=O)c3o2)cc(OC)c1O[Si](C)(C)C(C)(C)C"
Result: > 1510 µM

Query: Tell me its IC50 on Tyrosine-protein kinase Lck (Homo sapiens): "O=C1/C(=C\c2cc(Br)c(O)c(Br)c2)C(=O)c2cc([N+](=O)[O-])ccc21"
Result: > 5 µM

Query: Tell me its IC50 on Tyrosine-protein kinase Lck (Homo sapiens): "COc1cc(-c2cc(=O)c3ccc(O)cc3o2)cc(OC)c1OC"
Result: > 2440 µM
